Test: chemical genetic growth profiling, strain panel (AID 1159580);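 further: tested at 20 µM; growth read once vehicle control cultures reached saturation at 30 °C; 1 = growth at the plate median or of vehicle wells; lower values mean less growth of the strain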
Conditions: S. cerevisiae deletion strains, growth OD, locus YMR307W, strain GAS1, active compounds read low
Out of some 5,500 compounds screened, about 2,000 (36%) were called active. Not shown: some 18% with an inconclusive outcome. This is one part of the list.
reported-endpoint: normalized growth
// return just the number, without any unit appended

{"compound": "C[C@]12CCC3C(CC[C@H]4C[C@@H](O)CC[C@]34C)C1CCC2=O (stereo partly specified)", "normalized growth": 0.963}
{"compound": "S=C(NCc1ccco1)Nc1ccc(Oc2ccc(Cl)cc2)cc1", "normalized growth": 0.364}
{"compound": "COc1ccc2c(=O)c(-c3cc4c(cc3OC)OCO4)coc2c1", "normalized growth": 0.979}
{"compound": "COc1cc2ccc(=O)oc2c(OC)c1OC", "normalized growth": 1.07}
{"compound": "CCCN(CCC)[C@H]1CCc2c(F)ccc(O)c2C1", "normalized growth": 0.993}
{"compound": "OCCN1CCN(CCCN2c3ccccc3Sc3ccc(Cl)cc32)CC1", "normalized growth": 1.1}
{"compound": "O=C(CCCN1CC=C(n2c(=O)[nH]c3ccccc32)CC1)c1ccc(F)cc1", "normalized growth": 0.974}
{"compound": "CCOC(=O)c1csc(N/N=C2/CCCc3ccccc32)n1", "normalized growth": 0.631}
{"compound": "CC(C)=CCOc1cc2oc(=O)ccc2cc1O", "normalized growth": 0.596}
{"compound": "CCOC(=O)CC1=Nn2c(nnc2-c2cc(Cl)cc(Cl)c2)SC1", "normalized growth": 0.806}

Consider O=C1OC(=O)C2C3CCC(O3)C12 (stereo unspecified) . Its measured normalized growth is 1.02

response.value for C[N+]1(C)C2CC[C@H]1CC(OC(=O)C(O)c1ccccc1)C2 (stereo partly specified) (field: normalized growth) = 0.983

Please fill in: normalized growth reported for `Cc1onc(-c2c(F)cccc2Cl)c1C(=O)N1CCN(c2ncccc2C(F)(F)F)CC1` = 1.07

Record summary for `COc1cc(O)c(C)c(O)c1` : reported normalized growth = 1.01

For record `O=C(c1ccc(Cl)cc1)N1CCN(c2ccc(C(F)(F)F)cn2)CC1` the listed normalized growth is 0.272

response.value for `CCOc1ccc(Cc2nccc3cc(OCC)c(OCC)cc23)cc1OCC` (field: normalized growth) = 0.769

Lookup result for `CCCc1nc(C(C)(C)O)c(C(=O)OCc2oc(=O)oc2C)n1Cc1ccc(-c2ccccc2-c2nn[nH]n2)cc1` ; measured normalized growth: 0.894

So for `O=c1[nH]c2ccccc2n1CCCN1CCC(n2c(=O)[nH]c3cc(Cl)ccc32)CC1` , the logged normalized growth turned out to be 0.992

Lookup result for `O=C1C=CC(=O)C=C1` ; measured normalized growth: 1.04

So for `CCCCCN=C(N)N/N=C\c1c[nH]c2ccc(OC)cc12` , the logged normalized growth turned out to be 0.973

Please fill in: normalized growth reported for `O=c1c(-c2ccc3c(c2)OCO3)coc2cc(O)ccc12` = 0.974

normalized growth recorded for this compound, `CC1=C2[C@](C)(C=CC1=O)C[C@H](O)[C@H]1[C@H](C)C(=O)O[C@]21C` , is 1.08

Query `CCCN(CCC)[C@@H]1CCc2ccc(O)cc2C1` yields normalized growth of 1.01

The reported normalized growth of the compound `CC(C)=CCOc1c2occc2cc2ccc(=O)oc12` was 0.443

Lab note: `CCCCC(=O)N(Cc1ccc(-c2ccccc2-c2nn[nH]n2)cc1)[C@H](C(=O)O)C(C)C` gave normalized growth of 1.04

# compound `COc1cc(O)c(C(=O)c2ccccc2)c(OC)c1` ; its normalized growth = 0.647

Record `O=c1[nH]c2ccccc2n1CCCN1CCN(C(c2ccccc2)c2ccccc2)CC1` . Reported normalized growth: 1.03

Cited source for all entries: PubChem BioAssay AID1159580
